System: Macrophomina phaseolina
Assay explanation: Fungicidal activity against Rhizoctonia bataticola assessed as fungal growth inhibition at 28 degC by poisoned food technique
Assay type: functional
Cond: read-out: ED50 (the source's name)
Entries annotated with measured EC50
Hi! Could you send only the number? It should be in µg/mL, unit omitted.

O=[N+]([O-])c1cccc(/C=N/c2cc(Cl)c(Cl)cc2Cl)c1	6.17

Identify EC50 associated with the compound Fc1cccc(/N=C/c2ccc(Cl)cc2Cl)c1
600

Identify EC50 associated with the compound Fc1ccc(/N=C/c2c(Cl)cccc2Cl)cc1
123

Identify EC50 associated with the compound Fc1ccccc1/N=C/c1ccc(Cl)cc1Cl
15.6

Identify EC50 associated with the compound Fc1cccc(/N=C/c2c(Cl)cccc2Cl)c1
54

Identify EC50 associated with the compound Clc1ccc(/C=N/c2cc(Cl)c(Cl)cc2Cl)c(Cl)c1
3.05

Identify EC50 associated with the compound O=[N+]([O-])c1cccc(/C=N/c2ccc(F)cc2)c1
190

Identify EC50 associated with the compound Clc1cccc(Cl)c1/C=N/CCCC/N=C/c1c(Cl)cccc1Cl
12.4

Identify EC50 associated with the compound Clc1ccc(/C=N/CCC/N=C/c2ccc(Cl)cc2Cl)c(Cl)c1
17.8

Identify EC50 associated with the compound Clc1cccc(Cl)c1/C=N/C1CCCCC1/N=C/c1c(Cl)cccc1Cl (configuration not stated)
124

Identify EC50 associated with the compound Fc1ccc(/N=C/c2ccc(Cl)cc2Cl)cc1
21.8

Identify EC50 associated with the compound O=[N+]([O-])c1cccc(/C=N/c2ccccc2F)c1
113
